- Test system: ATP;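 note: ATP exposure 15 min at 22 °C before imaging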
- protocol: switch fluorescence ratio, 500 uM ATP over buffer (Cy3 cluster intensity, sum of 5 cycles each) (fold (ratio)); higher = stronger signal-on switching upon ATP binding; sequences stand for … in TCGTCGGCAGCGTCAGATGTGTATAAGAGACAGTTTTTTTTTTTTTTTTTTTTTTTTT…TC
- condition-context: aptamer strand: ATP DNA aptamer (quencher-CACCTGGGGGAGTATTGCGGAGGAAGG + anchor), 100 nM annealed; ATP concentration: 500 uM
Each entry below lists one item and its recorded switch fluorescence ratio value.
A bare number is all that is needed in reply.

Find switch fluorescence ratio for `TTGAGGTCTT` on ATP and write it down.
0.964

Find switch fluorescence ratio for `TTCGATGATA` on ATP and write it down.
1.07

Find switch fluorescence ratio for `GTATGGGGGG` on ATP and write it down.
0.985

###

- Test system: ATP;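 note: ATP exposure 15 min at 22 °C before imaging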
- protocol: switch fluorescence ratio, 500 uM ATP over buffer (Cy3 cluster intensity, sum of 5 cycles each) (fold (ratio)); higher = stronger signal-on switching upon ATP binding; sequences stand for … in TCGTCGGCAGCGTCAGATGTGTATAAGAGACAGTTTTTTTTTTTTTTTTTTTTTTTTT…TC
- condition-context: aptamer strand: ATP DNA aptamer (quencher-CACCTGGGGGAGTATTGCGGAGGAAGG + anchor), 100 nM annealed; ATP concentration: 500 uM
Each entry below lists one item and its recorded switch fluorescence ratio value.

The cases that follow already have their switch fluorescence ratio on record.
GGTTAATTAG    0.982
CAGTTTGACC    0.987
AGGGCTAAGG    1
TCAAAAAATT    1.02
CAGAGGGGTG    1.05

Find switch fluorescence ratio for `CACTAGAACC` on ATP and write it down.
1.03

Find switch fluorescence ratio for `ATGTGGGTGT` on ATP and write it down.
1.02

Find switch fluorescence ratio for `GTGTTTAGGA` on ATP and write it down.
1.02

Find switch fluorescence ratio for `GTGGGGGAA` on ATP and write it down.
0.994

Find switch fluorescence ratio for `GACCGGACAT` on ATP and write it down.
0.996

Find switch fluorescence ratio for `GAGGGGTATG` on ATP and write it down.
1

Find switch fluorescence ratio for `TAAAGAGGGT` on ATP and write it down.
1

Find switch fluorescence ratio for `CAGGACTTAT` on ATP and write it down.
1.02

###

- Test system: ATP;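 note: ATP exposure 15 min at 22 °C before imaging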
- protocol: switch fluorescence ratio, 500 uM ATP over buffer (Cy3 cluster intensity, sum of 5 cycles each) (fold (ratio)); higher = stronger signal-on switching upon ATP binding; sequences stand for … in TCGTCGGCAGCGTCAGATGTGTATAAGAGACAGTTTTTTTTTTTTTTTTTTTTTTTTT…TC
- condition-context: aptamer strand: ATP DNA aptamer (quencher-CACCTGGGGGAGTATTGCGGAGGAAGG + anchor), 100 nM annealed; ATP concentration: 500 uM
Each entry below lists one item and its recorded switch fluorescence ratio value.
A bare number is all that is needed in reply.

The cases that follow already have their switch fluorescence ratio on record.
AGTTGGGGGA    0.984
GGGGGGGGGC    1.03
GATGCACTCC    1.91
ACTAGATTCT    0.979
ACTGATCATG    1.02

Tell me measured switch fluorescence ratio for `GGTTCAGGGC` please.
1.02

Tell me measured switch fluorescence ratio for `TGGGTTGGCG` please.
1.04

Tell me measured switch fluorescence ratio for `TCGTTTTGAC` please.
1.02

Tell me measured switch fluorescence ratio for `TAATGGCTT` please.
1

Tell me measured switch fluorescence ratio for `TTTAGTGCGG` please.
0.973

Tell me measured switch fluorescence ratio for `CAGTCTATCG` please.
1.01

Tell me measured switch fluorescence ratio for `AATGGGCTGA` please.
0.971

Tell me measured switch fluorescence ratio for `AGTGAATTTT` please.
0.988

Tell me measured switch fluorescence ratio for `CATATCTAGG` please.
0.997

Tell me measured switch fluorescence ratio for `TTGGGGGCTA` please.
1

Tell me measured switch fluorescence ratio for `TATGTCAAG` please.
1.02

Tell me measured switch fluorescence ratio for `CTCTGCAGTG` please.
3.7

Tell me measured switch fluorescence ratio for `GGCATTTTTC` please.
0.999

Tell me measured switch fluorescence ratio for `TTTATGTTTT` please.
0.965

Tell me measured switch fluorescence ratio for `TAAGTTGTGC` please.
1.02

Tell me measured switch fluorescence ratio for `ACGTTAAAAT` please.
1.05

Tell me measured switch fluorescence ratio for `ATGTGCGGGG` please.
0.99

Tell me measured switch fluorescence ratio for `AGCTTAAATT` please.
0.987

Tell me measured switch fluorescence ratio for `CCTTGCCGGT` please.
1.02

Tell me measured switch fluorescence ratio for `CGTTTTGTTG` please.
0.998

Tell me measured switch fluorescence ratio for `AGACAGGGAG` please.
1.01
